From: ChEMBL document CHEMBL1240409

# Target: Bcr/Abl fusion protein (Homo sapiens) (UniProt P00519+P11274)
# Sequence (P00519 whole entry, looked up, the tested form may be a part): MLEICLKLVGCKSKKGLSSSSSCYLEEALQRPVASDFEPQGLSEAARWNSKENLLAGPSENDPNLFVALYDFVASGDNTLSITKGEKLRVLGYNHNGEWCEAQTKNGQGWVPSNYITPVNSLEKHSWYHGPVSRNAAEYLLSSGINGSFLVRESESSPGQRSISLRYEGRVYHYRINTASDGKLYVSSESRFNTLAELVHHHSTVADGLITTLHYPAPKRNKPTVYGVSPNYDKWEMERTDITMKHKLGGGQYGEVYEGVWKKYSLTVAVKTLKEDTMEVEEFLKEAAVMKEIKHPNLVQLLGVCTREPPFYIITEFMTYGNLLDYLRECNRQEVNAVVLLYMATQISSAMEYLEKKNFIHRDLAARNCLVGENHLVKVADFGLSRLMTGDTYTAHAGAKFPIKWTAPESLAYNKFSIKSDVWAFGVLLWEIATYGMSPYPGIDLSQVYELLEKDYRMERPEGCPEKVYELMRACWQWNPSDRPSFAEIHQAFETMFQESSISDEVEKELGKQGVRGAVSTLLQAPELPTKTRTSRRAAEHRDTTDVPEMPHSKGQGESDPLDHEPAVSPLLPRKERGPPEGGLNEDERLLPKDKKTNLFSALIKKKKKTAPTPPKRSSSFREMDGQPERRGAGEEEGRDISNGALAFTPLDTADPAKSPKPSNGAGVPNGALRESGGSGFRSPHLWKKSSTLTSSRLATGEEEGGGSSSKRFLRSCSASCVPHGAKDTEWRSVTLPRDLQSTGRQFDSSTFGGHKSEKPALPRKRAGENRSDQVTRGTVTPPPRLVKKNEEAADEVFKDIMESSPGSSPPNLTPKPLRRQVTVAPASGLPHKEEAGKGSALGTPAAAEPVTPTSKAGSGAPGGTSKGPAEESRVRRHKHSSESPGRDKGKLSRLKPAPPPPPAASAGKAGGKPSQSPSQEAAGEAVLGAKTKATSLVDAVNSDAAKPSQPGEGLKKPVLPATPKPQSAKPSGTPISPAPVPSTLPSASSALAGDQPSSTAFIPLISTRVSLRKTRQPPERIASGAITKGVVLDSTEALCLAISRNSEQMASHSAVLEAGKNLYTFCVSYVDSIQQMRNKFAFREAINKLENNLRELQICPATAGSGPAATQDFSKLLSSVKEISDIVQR
# Sequence (P11274 whole entry, looked up, the tested form may be a part): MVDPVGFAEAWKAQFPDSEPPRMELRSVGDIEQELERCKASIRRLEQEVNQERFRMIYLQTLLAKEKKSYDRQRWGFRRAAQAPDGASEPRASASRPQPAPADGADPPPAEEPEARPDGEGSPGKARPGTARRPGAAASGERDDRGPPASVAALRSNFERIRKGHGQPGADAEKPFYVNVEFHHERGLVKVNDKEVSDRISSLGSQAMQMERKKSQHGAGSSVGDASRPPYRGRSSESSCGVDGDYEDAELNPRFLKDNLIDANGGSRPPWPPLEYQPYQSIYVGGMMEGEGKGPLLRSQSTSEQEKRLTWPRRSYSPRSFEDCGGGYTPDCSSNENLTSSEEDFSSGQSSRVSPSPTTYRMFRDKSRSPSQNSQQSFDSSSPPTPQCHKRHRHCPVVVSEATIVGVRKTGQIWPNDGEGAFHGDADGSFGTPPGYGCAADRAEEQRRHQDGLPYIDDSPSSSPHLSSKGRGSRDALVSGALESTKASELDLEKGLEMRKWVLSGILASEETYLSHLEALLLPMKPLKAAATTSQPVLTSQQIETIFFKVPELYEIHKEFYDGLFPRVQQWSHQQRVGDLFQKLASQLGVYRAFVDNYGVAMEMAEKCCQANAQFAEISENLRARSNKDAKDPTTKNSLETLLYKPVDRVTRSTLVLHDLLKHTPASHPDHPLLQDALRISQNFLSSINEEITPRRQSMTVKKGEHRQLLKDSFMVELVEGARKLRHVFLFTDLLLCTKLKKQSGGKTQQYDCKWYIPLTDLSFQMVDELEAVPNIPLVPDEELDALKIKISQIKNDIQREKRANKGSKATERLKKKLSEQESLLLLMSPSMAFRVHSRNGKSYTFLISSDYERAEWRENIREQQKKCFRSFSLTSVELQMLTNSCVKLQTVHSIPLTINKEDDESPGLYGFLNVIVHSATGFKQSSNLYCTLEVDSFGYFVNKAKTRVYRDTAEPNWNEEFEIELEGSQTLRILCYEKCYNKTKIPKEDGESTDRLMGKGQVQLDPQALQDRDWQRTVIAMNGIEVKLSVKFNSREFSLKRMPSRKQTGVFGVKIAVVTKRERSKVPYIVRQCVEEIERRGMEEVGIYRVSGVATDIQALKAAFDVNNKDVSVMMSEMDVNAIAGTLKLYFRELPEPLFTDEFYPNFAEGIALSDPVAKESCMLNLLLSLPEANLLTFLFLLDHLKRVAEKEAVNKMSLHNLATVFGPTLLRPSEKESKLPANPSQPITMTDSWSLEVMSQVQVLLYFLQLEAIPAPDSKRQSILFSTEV
# Assay method text: Inhibition of BCR/ABL p210 autophosphorylation in human K562 cells at 0.2 to 10 uM after 2 hrs by Western blot analysis
# Type: cell-based
Activity calls are given as the source filed them. The calls are words filed in the database; no cut-off is given here.
Outcome measure: inhibition

O=C(O)c1ccc(C(=O)/C(=C\c2ccc(F)c([N+](=O)[O-])c2)SCc2ccc(C(F)(F)F)cc2)cc1
Active
O=C(/C(=C\c1ccc(F)c([N+](=O)[O-])c1)SCc1ccc(F)cc1)c1ccc(C(=O)N2CCN(CCO)CC2)cc1
Active
CN1CCN(CCNC(=O)c2ccc(C(=O)/C(=C\c3ccc(F)c([N+](=O)[O-])c3)SCc3ccc(Br)cc3)cc2)CC1
Active
COC(=O)c1ccc(C(=O)/C(=C\c2ccc(F)c([N+](=O)[O-])c2)SCc2ccc(Br)cc2)cc1
Active
O=C(O)c1ccc(C(=O)/C(=C\c2ccc(F)c([N+](=O)[O-])c2)SCc2ccc(Br)cc2)cc1
Active

Here is another molecule to look at.
Request: Check the records and state inhibition for `O=C(/C(=C\c1ccc(F)c([N+](=O)[O-])c1)SCc1ccc(Br)cc1)c1ccc(C(=O)N2CCN(CCO)CC2)cc1`
Result: Active
